biological target: Spindlin1 Y91A/C11orf84 complex (human, UniProt Q9Y657 50-262; Q9BUA3 1-381, Y91A); test: ITC
Sequence (Q9Y657 50-262 Y91A, chain 1 of 2): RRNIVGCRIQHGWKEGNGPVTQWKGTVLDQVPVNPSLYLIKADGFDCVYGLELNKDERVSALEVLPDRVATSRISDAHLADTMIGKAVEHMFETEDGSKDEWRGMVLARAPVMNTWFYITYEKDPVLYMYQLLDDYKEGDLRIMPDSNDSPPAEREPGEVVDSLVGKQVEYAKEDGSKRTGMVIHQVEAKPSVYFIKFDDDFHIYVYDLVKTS
Sequence (Q9BUA3 whole entry, chain 2 of 2): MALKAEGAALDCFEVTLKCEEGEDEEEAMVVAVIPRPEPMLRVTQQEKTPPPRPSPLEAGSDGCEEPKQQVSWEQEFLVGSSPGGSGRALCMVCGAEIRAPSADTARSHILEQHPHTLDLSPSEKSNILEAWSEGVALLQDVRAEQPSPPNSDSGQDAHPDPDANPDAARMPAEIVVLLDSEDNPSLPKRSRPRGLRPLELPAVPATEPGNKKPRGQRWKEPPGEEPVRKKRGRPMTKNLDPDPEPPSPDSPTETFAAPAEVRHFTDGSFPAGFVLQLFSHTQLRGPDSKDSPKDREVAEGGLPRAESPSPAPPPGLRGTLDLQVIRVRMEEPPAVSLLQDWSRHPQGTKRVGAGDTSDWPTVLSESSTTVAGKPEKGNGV
Ends that are not written are not given here. Me3 = trimethyl group on lysine (trimethyl-lysine)
Assay Endpoint: Kd

{"Binder": "ARTK(Me3)QTARK(Me3)STG [H3K4me3K9me3 peptide]", "Observed Result": "0.059 µM"}
